Values compiled from patent US9932300B2.

# System: eIF2-GTP-Met-tRNAi ternary complex
# procedure_details: Ternary complex assay (dual luciferase, firefly/renilla ratio) in stable KLN-tTA/pBISA-DL(ATF-4) cells; HTS and hit confirmation
# Type: cell-based, mouse
# applied_conditions: anti-cancer agents at 20 μM, ternary complex assay
measurement_label: Relative F-luc/R-luc Ratio (+/− SEM)

Worked examples, 3 compounds total:
COc1ccc([C@@H]2Sc3ccccc3N(CCN(C)C)C(=O)[C@@H]2OC(C)=O)cc1: 1.4 + 0.4
O=c1[nH]cc(F)c(=O)[nH]1: 1 + 0.2
Clc1ccccc1C(c1ccccc1)(c1ccccc1)n1ccnc1 [CLT, clotrimazole, reference compound]: 6 + 1.1

Kindly review the next compound as well.
For this compound ( COc1cc2c(c(OC)c1OC)-c1ccc(OC)c(=O)cc1[C@@H](NC(C)=O)CC2 ), measured Relative F-luc/R-luc Ratio (+/− SEM) is 1.2 + 0.3
